tested on: BT-549 breast; test: NCI-60 one-dose screen, 48 h; conditions: 10 µM
This is part of a sample that, as a whole, favours compounds with a hit. Of some 83,000 tested, about 20% had one in any assay. The source made the active and inactive calls. How the source made its calls: active means growth percent below 10; inactive means the rest.
Labels: active, inactive

1. CCCCN(CCCC)c1ccc(C(=NC(C)CCCN(CC)CC)c2ccc(N(C)C)cc2)cc1 (stereo unspecified)
active
2. CCOc1ccc2c(c1)CC[C@@H]1[C@@H]2CC[C@]2(C)[C@@H](O)[C@@H](O)C[C@@H]12
inactive
3. Nc1nc2c(nnn2C2CC(O)C(CO)O2)c(=O)[nH]1 (stereo unspecified)
inactive
4. CCOC(=S)Sc1ccc([N+](=O)[O-])cc1[N+](=O)[O-]
inactive
5. CCCCc1ccc(NC(=O)N(CCCl)N=O)cc1
inactive
6. CCOC(=O)c1ccc(NC(=O)Nc2nncs2)cc1
inactive
7. COC(=O)CCCCCCCCC(C)c1ccc(C(C)=O)cc1 (stereo unspecified)
inactive
8. O=C1/C(=C/c2ccc(O)cc2)Cc2ccc(Cl)cc21
inactive
9. CCc1ccc(-c2nnc(COc3ccc(-c4nc5cc(Cl)c(Cl)cc5[nH]4)cc3OC)o2)cc1
inactive
10. O=C(Cn1ccc(=O)[nH]c1=O)c1ccc([N+](=O)[O-])o1
inactive
11. O=C(COc1ccc(Cl)cc1Cl)Oc1coc(CSc2nc3ccccc3s2)cc1=O
inactive

====

system: ACHN renal; assay: NCI-60 one-dose screen, 48 h (100 = growth as untreated, 0 = no growth, -100 = all killed); conditions: 10 µM
Compounds without any hit were thinned out: in the full panel of roughly 83,000, 20% have a hit.
measurement-type: growth (%)

1. Nc1cc(O)cc(O)c1
105
2. COc1ccc2nc(-c3ccccc3)cc(C(C)=O)c2c1
97.7
3. O=C(NNc1nc(N2CCCC2)nc(N2CCCC2)n1)c1ccccc1
102
4. CCN(CCCNC(=O)Cc1cc(=O)oc2cc(N(C)C)ccc12)CCNc1ccnc2cc(Cl)ccc12
78.6
5. COc1ccc(C2C=C(c3ccc(OC)c(OC)c3)N=C3SC=CN32)c(Br)c1 (stereo unspecified)
76.6
6. CCOC(=O)c1c(O)c2cc(-c3ccccc3)nc(OCC)c2c(=O)n1C
98.3
7. CCCc1ccnc(NS(=O)(=O)c2ccc(N)cc2)n1
112
8. Nc1c(CNCc2nnn(Cc3ccccc3)c2N)nnn1Cc1ccccc1
99.6
9. O=NN(CCCl)C(=O)Nc1ccc(NC(=O)N(CCCl)N=O)cc1
96.4
10. CN(C)c1ccc2c(c1)OC(N)=C(C#N)C2c1ccc2c(c1)CCO2 (stereo unspecified)
37.4
11. Nc1nsc(C(=O)c2ccc(O)cc2)n1
91.1
12. Cc1ccc(-n2c(-c3cc4c([nH]c5ccccc54)c(-c4cccc(O)c4)n3)n[nH]c2=S)cc1
32.6
13. O=C1CC[C@@H](C(=O)N[C@H]2CSSC[C@@H](C(=O)NCCc3ccccc3)NC(=O)[C@H](Cc3ccccc3)NC(=O)[C@@H]3CCCN3C(=O)[C@@H]3CCCN3C2=O)N1
104
14. Nc1ncncc1-c1ccc(F)cc1
108
15. COc1ccc2nc(/C=C/c3ccc(N(C)C)cc3)sc2c1
104
16. Cc1ccc(S(=O)(=O)Nc2cccc3[nH]c(C(F)(F)F)nc23)cc1
49.8
17. CN(C)c1ccc2cc(-c3cc4c(oc3=O)-c3ccccc3OC4O)c(=O)oc2c1 (stereo unspecified)
4.78
18. Cc1ccc(-c2cc(C(=O)Nc3ccc(S(=O)(=O)N4CCCCC4)cc3)[nH]n2)c(O)c1
66.5
19. Cc1ccc2nc(-c3ccc(OCC(=O)N=Nc4c(O)[nH]c5ccccc45)cc3)[nH]c2c1
95.6
20. COc1cc(Nc2ccnc(N3CCN(c4ccnc5cc(Cl)ccc45)CC3)n2)cc(OC)c1
13.2
21. Fc1ccc(Nc2ccnc(N3CCN(c4ccnc5cc(Cl)ccc45)CC3)n2)cc1
38.7

====

test system: M14 melanoma; experiment: NCI-60 one-dose screen, 48 h; settings: 10 µM
The panel holds about 83,000 compounds, 20% with a hit somewhere; the sample as a whole holds those more often. Activity calls are given as the source filed them. Rule for the calls: active = growth percent below 10; inactive = the rest.
Labels: label 1 = active, label 0 = inactive

1) COc1ccccc1CNCCCN1C(=O)c2ccc3c4c(ccc(c24)C1=O)C(=O)N(CCCNCCNCCCN)C3=O
label 0
2) C=CCc1cc(Nc2c3ccc(Cl)cc3nc3ccc(OC)cc23)cc(CN(CC)CC)c1O
label 0
3) COc1ccc(-c2n/c(=C\c3c(O)[nH]c4ccccc34)cc3c2=Nc2ccccc2-3)cc1
label 1
4) COc1ccc(-c2csc(NC(=O)CO[N+](=O)[O-])n2)cc1
label 0
5) Oc1[nH]c2ccccc2c1/C=c1/cc2c(c(-c3ccc(C(F)(F)F)cc3)n1)=Nc1ccccc1-2
label 0
6) COc1ccccc1S(=O)(=O)Nc1ccc2c(c1)CN(C)C(=O)N2
label 0
7) CN(C)Cc1cccs1
label 0
8) CCc1ccc(-c2nnc(COc3ccc(-c4nc5ccccc5[nH]4)cc3OC)o2)cc1
label 0
9) CCCCCN(CCCCC)C(C)C(O)c1ccc2cc(Cl)c3ccccc3c2c1 (stereo not given)
label 0
10) CC(=O)OC1Oc2ccccc2-c2oc(=O)c(-c3ccc(F)cc3)cc21 (stereo not given)
label 0

====

test system: MDA-MB-435 melanoma; test: NCI-60 one-dose screen, 48 h (100 = growth as untreated, 0 = no growth, -100 = all killed); conditions: 10 µM
About 83,000 compounds went through this panel and 20% of them were active in at least one assay; those are over-represented in the sample as a whole.
measurement-type: growth (%)

1) COc1ccc(-c2nc(-c3nc4ccc(C)cc4[nH]3)c3ccccn23)cc1
62.9
2) Cc1ccc(/C(CS(=O)(=O)c2ccc(C)cc2)=N\O)cc1
89
3) Cc1cn(C(=O)/C(Cl)=C(/Cl)C(=O)O)c2ccccc12
109
4) Clc1cc(Cl)c(Cl)c(-c2nc(-c3cccnc3)cs2)c1
4.27
5) CCCCCC(=O)N1c2ccccc2NC2=C(C(=O)CC(c3ccc(OC)c(OC)c3)C2)C1c1ccc(C(F)(F)F)cc1 (stereo not given)
62.4
6) COc1ccc(-c2nc(-c3nc4ccc(OC)cc4[nH]3)c3ccccn23)cc1
81.5
7) Cc1ccc(-c2cc(-c3cccc(Nc4ccnc5cc(Cl)ccc45)c3)nc3nc(N)[nH]c(=O)c23)cc1
99.8
8) CC(C)c1[nH]nc2c(NCc3ccc(-c4ccccn4)cc3)nc(SCCN)nc12
-39.6
9) O=C1c2cc(Cl)ccc2-c2c(O)cc(Cl)cc21
106
10) COc1ccc(-c2nnc(SCC(=O)c3ccccc3)o2)cc1
101

====

tested on: MDA-MB-231 breast; assay: NCI-60 one-dose screen, 48 h; details: 10 µM
About 83,000 compounds went through this panel and 20% of them were active in at least one assay; those are over-represented in the sample as a whole. Activity calls are given as the source filed them. The calls were made as follows: active = growth percent below 10; inactive = the rest.
Labels: yes (1) (active), no (0) (inactive)

1) COc1ccc2nc(/C=C/c3ccc(N(C)C)cc3)sc2c1
no (0)
2) CCCc1c(CC)c(=N)c2ccccc2n1C
no (0)
3) COc1cc2nc(Sc3sc(N)nc3C)n(-c3ccc(Oc4ccccc4)cc3)c(=O)c2cc1OC
no (0)
4) C=C1C(=O)O[C@H]2[C@H]1CC/C(COC(=O)OCCCCCOC(=O)OC/C1=C/CC[C@@]3(C)O[C@H]3[C@H]3OC(=O)C(=C)[C@@H]3CC1)=C\CC[C@@]1(C)O[C@@H]21
yes (1)
5) Cc1c(C(=O)N[C@H](CO)Cc2ccccc2)[nH]c2ccc(Cl)cc2c1=O
no (0)
6) c1ccc(CC(NCCNC(Cc2ccccc2)c2ccccc2)c2ccccc2)cc1 (stereo unspecified)
yes (1)
7) COc1cc(-c2nc3ccccc3[nH]2)ccc1OCC(=O)N=Nc1c(O)[nH]c2ccccc12
no (0)
8) Cc1ccc(S(=O)(=O)N2CCc3ccccc3CC2)cc1
no (0)
9) Nc1nc2c(ncn2C2OC3COP(=O)(O)OC4C(COP(=O)(O)OC2C3O)OC(n2cnc3c(N)ncnc32)C4O)c(=O)[nH]1 (stereo unspecified)
no (0)
10) Cc1cn(C(=O)/C(Cl)=C(/Cl)C(=O)O)c2ccccc12
no (0)
11) CC(=O)OC1Oc2ccccc2-c2oc(=O)c(-c3ccc(F)cc3)cc21 (stereo unspecified)
no (0)
12) COc1ccc2nc(NC(=O)Nc3c(F)cccc3F)sc2c1
no (0)
13) Nc1nsc(C(=O)c2ccc(O)cc2)n1
no (0)
14) COc1cc(OC)cc(-c2ccc(-c3ccc(C(=N)N)cn3)o2)c1
yes (1)
15) CCN(CCCNC(=O)Cc1cc(=O)oc2cc(N(C)C)ccc12)CCNc1ccnc2cc(Cl)ccc12
no (0)
16) CCCCNC(=O)Oc1ccc(/C(=C(\C)c2ccc(OC)cc2)c2ccc(OCCN3CCCCC3)cc2)cc1
no (0)
17) O=C(CCc1ccccc1)N1CCN(C(=O)CCc2ccccc2)CC1
no (0)
18) O=C1CC(c2cccc(-c3cccnc3)c2)=Nc2ccc(Br)cc2N1
no (0)
19) CC(C)=C1CCC(C)C/C1=N\N=C(N)N (stereo unspecified)
no (0)
20) c1ccc(CNc2nc(Nc3ccc(-c4nc5ccccc5[nH]4)cc3)c3cn[nH]c3n2)cc1
yes (1)
21) COc1ccc(/C(CS(=O)(=O)c2ccccc2)=N\O)cc1
no (0)
